Each item that follows carries a reported number of clinical isolates that showed the respective MIC value.
Test system: P. aeruginosa (16 clinical isolates)
Experiment description: Antibacterial activity on representative drug-resistance bacteria: number of clinical isolates per MIC value
Assay type: cell-based
Condition label: MIC 1 ug/mL; P. aeruginosa (N = 16)
API note: the answer field is a bare number with no unit suffix.

Worked examples follow.
# Compound, Value measured
rows = [
    ("C[C@H](O/N=C(\\C(=O)N[C@@H]1C(=O)N2C(C(=O)[O-])=C(C[n+]3cnc(N)c(NCCNC(=O)c4cc(=O)c(O)cn4O)c3)CSC12)c1nc(N)sc1Cl)C(=O)O (stereo partly shown)", 1),
    ("CC(C)(O/N=C(\\C(=O)N[C@@H]1C(=O)N2C(C(=O)[O-])=C(/C=C/C[n+]3cnc(N)c(NCCNC(=O)c4cc(=O)c(O)cn4O)c3)CSC12)c1csc(N)n1)C(=O)O (stereo partly shown) [Compound 8]", 2),
    ("CC(C)(O/N=C(\\C(=O)N[C@@H]1C(=O)N2C(C(=O)[O-])=C(/C=C/C[n+]3cnc(N)c(NCCNC(=O)c4cc(=O)c(O)cn4O)c3)CSC12)c1nc(N)sc1Cl)C(=O)O (stereo partly shown)", 1),
]

Need number of clinical isolates that showed the respective MIC value, item CC(C)(O/N=C(\C(=O)N[C@@H]1C(=O)N2C(C(=O)[O-])=C(/C=C/C[n+]3cnc(N)c(NCCNC(=O)c4cc(=O)c(O)cn4O)c3)CSC12)c1csc(N)n1)C(=O)O (stereo partly shown) [Compound 11]
2

----------
Test system: P. aeruginosa 37
Experiment description: In vitro antibacterial activity test (broth microdilution)
Type: cell-based
Condition label: Pseudomonas aeruginosa, 37, P. aeruginosa 37
// NB: equality with 30 µg/mL counts as class 0; only MIC90 strictly below is class 1

# Molecule, Discrete label
data = [
    ("CC(C)(O/N=C(\\C(=O)N[C@@H]1C(=O)N2C(C(=O)[O-])=C(/C=C/C[n+]3cnc(N)c(NCCN)c3)CSC12)c1nsc(N)n1)C(=O)O (some centres unmarked)", "class 1"),
    ("CC(C)(O/N=C(\\C(=O)N[C@@H]1C(=O)N2C(C(=O)[O-])=C(/C=C/C[n+]3cnc(N)c(NCCN)c3N)CSC12)c1csc(N)n1)C(=O)O (some centres unmarked)", "class 1"),
]

# strict comparison: is reported MIC90 < 30 µg/mL? input = CC(C)(O/N=C(\C(=O)N[C@@H]1C(=O)N2C(C(=O)[O-])=C(/C=C/C[n+]3cnc(N)c(NCCN)c3)CSC12)c1nc(N)sc1Cl)C(=O)O (some centres unmarked)
class 1

# strict comparison: is reported MIC90 < 30 µg/mL? input = CC(C)(O/N=C(\C(=O)N[C@@H]1C(=O)N2C(C(=O)[O-])=C(C[n+]3cnc(N)c(NCCNC(=N)N)c3)CSC12)c1csc(N)n1)C(=O)O (some centres unmarked)
class 1

----------
System: K. pneumoniae β13
Experiment description: In vitro antibacterial activity test (broth microdilution)
Assay type: cell-based
Condition label: Klebsiella pneumoniae, K. pneumoniae β13; read-out: MIC90
Method: To evaluate antibacterial activity of each of the compounds of Examples 1 to 68, in vitro antibacterial activity test was performed. […] In vitro antibacterial activity was measured with respect to the following 19 clinical isolates: M. catarrhalis; P. aeruginosa (5 strains); K. pneumoniae (6 strains); A. baumannii (3 strains); E. coli (2 strains); A. calcoaceticus; and E. cloacae. […]
Endpoint: MIC90 (µg/mL)
Give the value, in units of µg/mL, as a plain number.

Need MIC90, item CC(C)(O/N=C(\C(=O)N[C@@H]1C(=O)N2C(C(=O)[O-])=C(C[n+]3cnc(N)c(NCCNC(=O)c4cc(=O)c(O)cn4O)c3)CSC12)c1nc(N)sc1Cl)C(=O)O (some centres unmarked)
2

Need MIC90, item CC(C)(O/N=C(\C(=O)N[C@@H]1C(=O)N2C(C(=O)[O-])=C(/C=C/C[n+]3cnc(N)c(NC(=O)CCNC(=O)c4cc(=O)c(O)c[nH]4)c3)CSC12)c1csc(N)n1)C(=O)O (some centres unmarked)
1

Need MIC90, item CC(C)(O/N=C(\C(=O)N[C@@H]1C(=O)N2C(C(=O)[O-])=C(C[n+]3cnc(N)c(NC(=O)CCNC(=O)c4cc(=O)c(O)cn4O)c3)CSC12)c1nc(N)sc1Cl)C(=O)O (some centres unmarked)
4

Need MIC90, item CC(C)(O/N=C(\C(=O)N[C@@H]1C(=O)N2C(C(=O)[O-])=C(C[n+]3ccccc3)CS[C@H]12)c1csc(N)n1)C(=O)O [Ceftazidime, reference compound]
32

Need MIC90, item C[C@H](O/N=C(\C(=O)N[C@@H]1C(=O)N2C(C(=O)[O-])=C(C[n+]3cnc(N)c(NCCNC(=O)c4cc(=O)c(O)cn4O)c3)CSC12)c1nc(N)sc1Cl)C(=O)O (some centres unmarked)
1

----------
Tested on: E. coli AG100
Experiment description: In vitro antibacterial activity test (broth microdilution)
Type: cell-based
Condition label: Escherichia coli, AG100
Endpoint: MIC90 (µg/mL)
Give the value, in units of µg/mL, as a plain number.

Worked examples follow.
# Compound, MIC90 [µg/mL]
records = [
    ("CC(C)(O/N=C(\\C(=O)N[C@@H]1C(=O)N2C(C(=O)[O-])=C(/C=C/C[n+]3cnc(N)c(NCCCCN)c3)CSC12)c1nc(N)sc1Cl)C(=O)O (stereo partly drawn)", 0.5),
    ("CC(C)(O/N=C(\\C(=O)N[C@@H]1C(=O)N2C(C(=O)[O-])=C(/C=C/C[n+]3cnc(N)c(NC(=O)CCCN)c3N)CSC12)c1nc(N)sc1Cl)C(=O)O (stereo partly drawn)", 0.5),
    ("CC(C)(O/N=C(\\C(=O)N[C@@H]1C(=O)N2C(C(=O)[O-])=C(C[n+]3cnc(N)c(NCCN)c3)CSC12)c1csc(N)n1)C(=O)O (stereo partly drawn)", 4),
    ("CC(C)(O/N=C(\\C(=O)N[C@@H]1C(=O)N2C(C(=O)[O-])=C(C[n+]3cnc(NCCCCN)c(NCCCCN)c3)CSC12)c1csc(N)n1)C(=O)O (stereo partly drawn)", 1),
    ("CC(C)(O/N=C(\\C(=O)N[C@@H]1C(=O)N2C(C(=O)[O-])=C(/C=C/C[n+]3cnc(N)c(NC(=O)CCCN)c3)CSC12)c1nc(N)sc1Cl)C(=O)O (stereo partly drawn)", 0.5),
]

Need MIC90, item CC(C)(O/N=C(\C(=O)N[C@@H]1C(=O)N2C(C(=O)[O-])=C(/C=C/C[n+]3cnc(N)c(NC(=O)CCN)c3N)CSC12)c1csc(N)n1)C(=O)O (stereo partly drawn)
0.25

Need MIC90, item CC(C)(O/N=C(\C(=O)N[C@@H]1C(=O)N2C(C(=O)[O-])=C(/C=C/C[n+]3cnc(N)c(NCCCN)c3)CSC12)c1nsc(N)n1)C(=O)O (stereo partly drawn)
0.5

Need MIC90, item CC(C)(O/N=C(\C(=O)N[C@@H]1C(=O)N2C(C(=O)[O-])=C(/C=C/C[n+]3cnc(N)c(NCCCN)c3)CSC12)c1nc(N)sc1Cl)C(=O)O (stereo partly drawn)
0.125

Need MIC90, item CC(C)(O/N=C(\C(=O)N[C@@H]1C(=O)N2C(C(=O)[O-])=C(/C=C/C[n+]3cnc(N)c(NC(=O)CCN)c3)CSC12)c1nsc(N)n1)C(=O)O (stereo partly drawn)
0.125

Need MIC90, item CC(C)(O/N=C(\C(=O)N[C@@H]1C(=O)N2C(C(=O)[O-])=C(/C=C/C[n+]3cnc(N)c(NC(=O)CCN)c3)CSC12)c1csc(N)n1)C(=O)O (stereo partly drawn)
0.125

Need MIC90, item CC(C)(O/N=C(\C(=O)N[C@@H]1C(=O)N2C(C(=O)[O-])=C(/C=C/C[n+]3cnc(N)c(NC(=O)CCCN)c3)CSC12)c1csc(N)n1)C(=O)O (stereo partly drawn)
0.125

----------
System: P. aeruginosa 43
Experiment description: In vitro antibacterial activity test (broth microdilution)
Type: cell-based
Condition label: Pseudomonas aeruginosa; P. aeruginosa 43; read-out: MIC90
Endpoint: MIC90 (mg/L)
Give the value, in units of mg/L, as a plain number.

# Molecule, Units symbol, MIC90
data = [
    ("C[C@H](O/N=C(\\C(=O)N[C@@H]1C(=O)N2C(C(=O)[O-])=C(C[n+]3cnc(N)c(NCCNC(=O)c4ccc(O)c(O)c4)c3)CSC12)c1nc(N)sc1Cl)C(=O)O (stereo partly drawn)", "mg/L", 1),
    ("CC(C)(O/N=C(\\C(=O)N[C@@H]1C(=O)N2C(C(=O)[O-])=C(C[n+]3cnc(NCCNC(=O)c4cc(=O)c(O)cn4O)c(N)c3)CSC12)c1csc(N)n1)C(=O)O (stereo partly drawn)", "mg/L", 0.5),
]

Need MIC90, item C[C@H](O/N=C(\C(=O)N[C@@H]1C(=O)N2C(C(=O)[O-])=C(C[n+]3cnc(N)c(NC(=O)CCNC(=O)c4cc(=O)c(O)cn4O)c3)CSC12)c1nc(N)sc1Cl)C(=O)O (stereo partly drawn)
1
